Test system: K98450-129-R-PDC complex spheroid growth, percent test/control;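 further: luminescence used as a proxy for viable cell amount; spheroids exposed to agents for seven days before the viability readout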
RUN DESCRIPTION: Anticancer human tumor K98450-129-R-PDC patient-derived colon adenocarcinoma cell line growth inhibition [RAS]
EXPERIMENTAL CONDITIONS: second compound 0.00949 µM; first compound 0.316 µM; hits give low values
Mark rule met for viability, T/C under 40%, rule not met if at or over.

molecule="CC1(O)CCCC1n1c(=O)c(C(F)F)cc2cnc(NC3CCN(S(C)(=O)=O)CC3)nc21 (stereo not drawn) + CCn1c(-c2cccnc2C(C)OC)c2c3cc(ccc31)N1CCOC(CC(NC(=O)C(C(C)C)N(C)C(=O)C3(F)CCN(C(=O)C#CC(C)(C)N(C)C)CC3)C(=O)N3CCCC(N3)C(=O)OCC(C)(C)C2)C1" class="rule met"
molecule="C=CC(=O)Nc1cc(Nc2nccc(-c3cn(C)c4ccccc34)n2)c(OC)cc1N(C)CCN(C)C + CCn1c(-c2cc(N3CCN(C)CC3)cnc2C(C)OC)c2c3cc(ccc31)-c1csc(n1)CC(NC(=O)C1CC1C)C(=O)N1CCCC(N1)C(=O)OCC(C)(C)C2" class="rule met"
molecule="C=CC(=O)N1CCN(c2nc(OCC3CCCN3C)nc3c(F)c(-c4nc(N)cc(C)c4C(F)(F)F)c(Cl)cc23)C(C)C1 (stereo not drawn) + CCn1c(-c2cc(N3CCN(C)CC3)cnc2C(C)OC)c2c3cc(ccc31)-c1csc(n1)CC(NC(=O)C1CC1C)C(=O)N1CCCC(N1)C(=O)OCC(C)(C)C2" class="rule met"
molecule="CC(Nc1ccc2c(c1)OCCn1cc(N3C(=O)OCC3C(F)F)nc1-2)C(N)=O (stereo not drawn) + CCn1c(-c2cc(N3CCN(C)CC3)cnc2C(C)OC)c2c3cc(ccc31)-c1csc(n1)CC(NC(=O)C1CC1C)C(=O)N1CCCC(N1)C(=O)OCC(C)(C)C2" class="rule not met"
molecule="NC1c2ccccc2OC12CCN(c1cnc3c(N4CCCc5ncccc54)n[nH]c3n1)CC2 (stereo not drawn) + CCn1c(-c2cc(N3CCN(C)CC3)cnc2C(C)OC)c2c3cc(ccc31)-c1csc(n1)CC(NC(=O)C1CC1C)C(=O)N1CCCC(N1)C(=O)OCC(C)(C)C2" class="rule met"
molecule="CC(Nc1ccc2c(c1)OCCn1cc(N3C(=O)OCC3C(F)F)nc1-2)C(N)=O (stereo not drawn) + CCn1c(-c2cccnc2C(C)OC)c2c3cc(ccc31)N1CCOC(CC(NC(=O)C(C(C)C)N(C)C(=O)C3(F)CCN(C(=O)C#CC(C)(C)N(C)C)CC3)C(=O)N3CCCC(N3)C(=O)OCC(C)(C)C2)C1" class="rule met"
molecule="Cc1nc(N2CCC3(CC2)COC(C)C3N)c(CO)nc1Sc1ccnc(N)c1Cl (stereo not drawn) + CCn1c(-c2cc(N3CCN(C)CC3)cnc2C(C)OC)c2c3cc(ccc31)-c1csc(n1)CC(NC(=O)C1CC1C)C(=O)N1CCCC(N1)C(=O)OCC(C)(C)C2" class="rule not met"
molecule="CCN1CCN(Cc2ccc(Nc3ncc(F)c(-c4cc(F)c5nc(C)n(C(C)C)c5c4)n3)nc2)CC1 + CCn1c(-c2cc(N3CCN(C)CC3)cnc2C(C)OC)c2c3cc(ccc31)-c1csc(n1)CC(NC(=O)C1CC1C)C(=O)N1CCCC(N1)C(=O)OCC(C)(C)C2" class="rule met"
